- assay.text: Pharmacokinetics and brain distribution after single oral dose, rats
- Type: in vivo, male Sprague-Dawley rats
- assay.setup: male, Sprague-Dawley, rat, plasma, single PO 30 mg/kg
metric.name: half-life

Looking for the measured half-life of CC(C)N1CCOc2c(F)cc(-c3nc(Nc4ccc(C5CCN(C)CC5)cn4)ncc3F)cc21 [Compound (I)] , can you help?
13.4 h

###

- assay.text: Pharmacokinetics and brain distribution after single oral dose, mice
- Type: in vivo, male CD1 mice
- assay.setup: male, CD1, mouse, brain; mice, single PO 10 mg/kg, 6 h; read-out: Brain Conc
metric.name: concentration at 6 h (ng/mL)
Respond numerically; units are ng/mL and should not be typed.

GET /values?readout=concentration at 6 h&item= "CC(C)N1CCOc2c(F)cc(-c3nc(Nc4ccc(C5CCN(C)CC5)cn4)ncc3F)cc21"
464

###

- assay.text: Pharmacokinetics and brain distribution after single oral dose, mice
- Assay type: in vivo, male CD1 mice
- assay.setup: male, CD1, mouse, plasma; mice, single PO 10 mg/kg, 12 h; read-out: Plasma Conc
metric.name: concentration at 12 h (ng/mL)
Give the quantity in ng/mL, number only.

Dear colleague, I am looking for the recorded concentration at 12 h of the following molecule: CC(C)N1CCOc2c(F)cc(-c3nc(Nc4ccc(C5CCN(C)CC5)cn4)ncc3F)cc21 [Compound (I)]
105

###

- assay.text: Pharmacokinetics and brain distribution after single oral dose, mice
- Type: in vivo, male CD1 mice
- assay.setup: male, CD1, mouse, plasma; mice, single PO 10 mg/kg, 4 h; read-out: Plasma Conc
metric.name: concentration at 4 h (ng/mL)
Hi! Could you send only the number? It should be in ng/mL, unit omitted.

Recorded concentration at 4 h of "CC(C)N1CCOc2c(F)cc(-c3nc(Nc4ccc(C5CCN(C)CC5)cn4)ncc3F)cc21" , please.
209

###

- assay.text: Pharmacokinetics and brain distribution after single oral dose, rats
- Format: in vivo, male Sprague-Dawley rats
- assay.setup: male, Sprague-Dawley, rat, brain, po, 100 mg/kg, single PO 100 mg/kg, 6 h, read-out: Brain:Plasma Ratio
metric.name: Kp at 6 h

Which Kp at 6 h is listed for "CC(C)N1CCOc2c(F)cc(-c3nc(Nc4ccc(C5CCN(C)CC5)cn4)ncc3F)cc21" ?
12

###

- assay.text: Pharmacokinetics and brain distribution after single oral dose, rats
- Assay type: in vivo, male Sprague-Dawley rats
- assay.setup: male, Sprague-Dawley, rat, plasma, single PO 1 mg/kg (HCl salt, as free base), 12 h
metric.name: concentration at 12 h (ng/mL)
Numeric answer only, unit ng/mL assumed.

Any idea what its concentration at 12 h is? The compound is "CC(C)N1CCOc2c(F)cc(-c3nc(Nc4ccc(C5CCN(C)CC5)cn4)ncc3F)cc21"
4.64

###

- assay.text: Pharmacokinetics and brain distribution after single oral dose, rats
- Assay type: in vivo, male Sprague-Dawley rats
- assay.setup: male, Sprague-Dawley, rat, plasma, single PO 10 mg/kg
metric.name: AUC(0-inf) (µg·h/mL)
Unit µg·h/mL implied. Number only.

Which AUC(0-inf) is listed for CC(C)N1CCOc2c(F)cc(-c3nc(Nc4ccc(C5CCN(C)CC5)cn4)ncc3F)cc21 [Compound (I)] ?
1.08

###

- assay.text: Pharmacokinetics and brain distribution after single oral dose, mice
- Format: in vivo, male CD1 mice
- assay.setup: male, CD1, mouse, plasma; mice, single PO 10 mg/kg, 6 h; read-out: Plasma Conc
metric.name: concentration at 6 h (ng/mL)
I only need the number, in ng/mL, no unit after it.

I am curious: what concentration at 6 h value has been reported for "CC(C)N1CCOc2c(F)cc(-c3nc(Nc4ccc(C5CCN(C)CC5)cn4)ncc3F)cc21" ?
247

###

- assay.text: Pharmacokinetics and brain distribution after single oral dose, rats
- Type: in vivo, male Sprague-Dawley rats
- assay.setup: male, Sprague-Dawley, rat, brain, po, 100 mg/kg, 6 hours post-dose, each dose level (1, 10, 30, 100 mg/kg PO), read-out: Brain-to-plasma concentration ratio
metric.name: Kp at 6 h

# input compound: "CC(C)N1CCOc2c(F)cc(-c3nc(Nc4ccc(C5CCN(C)CC5)cn4)ncc3F)cc21" ; wanted: its Kp at 6 h
> 6

###

- assay.text: Pharmacokinetics and brain distribution after single oral dose, rats
- Format: in vivo, male Sprague-Dawley rats
- assay.setup: male, Sprague-Dawley, rat, plasma, single PO 1 mg/kg
metric.name: Cmax
Your answer should be a number followed by the unit of measure.

Given the entry "CC(C)N1CCOc2c(F)cc(-c3nc(Nc4ccc(C5CCN(C)CC5)cn4)ncc3F)cc21" , report its measured Cmax.
9.37 ng/mL

###

- assay.text: Pharmacokinetics and brain distribution after single oral dose, mice
- Type: in vivo, male CD1 mice
- assay.setup: male, CD1, mouse, brain, po, 10 mg/kg, mice, single PO 10 mg/kg, 2 h; read-out: Brain:Plasma Ratio, mean (SD)
metric.name: Kp at 2 h

Could you share which Kp at 2 h value was measured for "CC(C)N1CCOc2c(F)cc(-c3nc(Nc4ccc(C5CCN(C)CC5)cn4)ncc3F)cc21" ?
1.7

###

- assay.text: Pharmacokinetics and brain distribution after single oral dose, rats
- Format: in vivo, male Sprague-Dawley rats
- assay.setup: male, Sprague-Dawley, rat, plasma, single PO 30 mg/kg (HCl salt, as free base), 6 h, read-out: Mean Plasma Concentration
metric.name: concentration at 6 h

// returns reported concentration at 6 h for input "CC(C)N1CCOc2c(F)cc(-c3nc(Nc4ccc(C5CCN(C)CC5)cn4)ncc3F)cc21"
180 ng/mL

###

- assay.text: Pharmacokinetics and brain distribution after single oral dose, mice
- Format: in vivo, male CD1 mice
- assay.setup: male, CD1, mouse, brain, po, 10 mg/kg, mice, single PO 10 mg/kg, 6 h; read-out: Brain:Plasma Ratio, mean (SD)
metric.name: Kp at 6 h

Fill blank: measured Kp at 6 h of the compound "CC(C)N1CCOc2c(F)cc(-c3nc(Nc4ccc(C5CCN(C)CC5)cn4)ncc3F)cc21" is ____.
1.9

###

- assay.text: Pharmacokinetics and brain distribution after single oral dose, rats
- Format: in vivo, male Sprague-Dawley rats
- assay.setup: male, Sprague-Dawley, rat, plasma, single PO 10 mg/kg
metric.name: Tmax (h)
Kindly provide the numeric value in h only, without the unit symbol.

For "CC(C)N1CCOc2c(F)cc(-c3nc(Nc4ccc(C5CCN(C)CC5)cn4)ncc3F)cc21" , what is its reported Tmax?
6

###

- assay.text: Pharmacokinetics and brain distribution after single oral dose, rats
- Type: in vivo, male Sprague-Dawley rats
- assay.setup: male, Sprague-Dawley, rat, brain, single PO 1 mg/kg, 6 h, read-out: Brain Conc
metric.name: concentration at 6 h (ng/mL)
# output: bare number, implied unit ng/mL

What does the data say about its concentration at 6 h? Entry: CC(C)N1CCOc2c(F)cc(-c3nc(Nc4ccc(C5CCN(C)CC5)cn4)ncc3F)cc21 [Compound (I)]
58.9

###

- assay.text: Pharmacokinetics and brain distribution after single oral dose, rats
- Type: in vivo, male Sprague-Dawley rats
- assay.setup: male, Sprague-Dawley, rat, brain, single PO 10 mg/kg, 6 h, read-out: Brain Conc
metric.name: concentration at 6 h (ng/mL)
Express it in ng/mL; write the number only.

Given the entry CC(C)N1CCOc2c(F)cc(-c3nc(Nc4ccc(C5CCN(C)CC5)cn4)ncc3F)cc21 [Compound (I)] , report its measured concentration at 6 h.
548

###

- assay.text: Pharmacokinetics and brain distribution after single oral dose, rats
- Type: in vivo, male Sprague-Dawley rats
- assay.setup: male, Sprague-Dawley, rat, plasma, single PO 100 mg/kg (HCl salt, as free base), 12 h
metric.name: concentration at 12 h (ng/mL)
All answers are understood in ng/mL, so give the number only.

Give its concentration at 12 h value. Item: "CC(C)N1CCOc2c(F)cc(-c3nc(Nc4ccc(C5CCN(C)CC5)cn4)ncc3F)cc21"
193

###

- assay.text: Pharmacokinetics and brain distribution after single oral dose, mice
- Type: in vivo, male CD1 mice
- assay.setup: male, CD1, mouse, brain, po, 10 mg/kg, mice, single PO 10 mg/kg, at 2, 4, 6, and 12 hours post-dose; read-out: Brain-to-plasma concentration ratio
metric.name: Kp at 12 h

Can you look up the measured Kp at 12 h of "CC(C)N1CCOc2c(F)cc(-c3nc(Nc4ccc(C5CCN(C)CC5)cn4)ncc3F)cc21" for me?
> 1.5

###

- assay.text: Pharmacokinetics and brain distribution after single oral dose, mice
- Assay type: in vivo, male CD1 mice
- assay.setup: male, CD1, mouse, brain, po, 10 mg/kg, mice, single PO 10 mg/kg, 4 h; read-out: Brain:Plasma Ratio, mean (SD)
metric.name: Kp at 4 h
// keep it numeric: no unit symbol after the value

Kp at 4 h lookup needed for "CC(C)N1CCOc2c(F)cc(-c3nc(Nc4ccc(C5CCN(C)CC5)cn4)ncc3F)cc21" , thanks.
2.1
